meta.source: PubChem BioAssay (Tox21)

- EXPERIMENT NOTES: qHTS assay to identify small molecule antagonists of the estrogen receptor beta (ER-beta) signaling pathway - cell viability counter screen (AID 1259382); also: nearly all actives have a fitted effect of over 55% in size; also: potency is read from the fitted curve at half-maximal effect
- EXPERIMENTAL PARAMETERS: ER-beta-UAS-bla HEK293T viability, CellTiter-Glo luminescence, 16 h; series mostly up to 92.4 µM
Records with an inconclusive call do not appear. The source made the active and inactive calls. Calls follow the shape of the dose curve; as a rule, active = well fitted cell-killing curve with a large enough effect in the repeat runs; inconclusive = weak or mixed curves; inactive = flat fitted curve, though single readings scatter.
READOUT NAME: Potency

Use these answered entries as a reference point.
{"SMILES REPRESENTATION": "[Cl][Hg][c]1ccccc1", "Potency": "3.06 µM (active)"}
{"SMILES REPRESENTATION": "CC(=O)O.CC(=O)O.CC(=O)O.CC(=O)O.CC(=O)O.CC(=O)O.CC(=O)O.O.O.[Cr].[Cr].[Cr]", "Potency": "inactive"}
{"SMILES REPRESENTATION": "O=[N+]([O-])c1ccc(CCl)cc1", "Potency": "inactive"}
{"SMILES REPRESENTATION": "O=c1[nH]c2cc(Cl)ccc2n1C1CCNCC1", "Potency": "inactive"}
{"SMILES REPRESENTATION": "CC(C)N(C(=O)SC/C(Cl)=C/Cl)C(C)C", "Potency": "inactive"}

Now for the compound whose Potency we want.
Per the record, "C[C@]12C/C(=C/O)C(=O)C[C@@H]1CC[C@@H]1[C@@H]2CC[C@@]2(C)[C@H]1CC[C@]2(C)O" has Potency of 49 µM (active)

###

- EXPERIMENT NOTES: qHTS assay to identify small molecule agonists of H2AX - cell viability counter screen (AID 1224847); also: nearly all actives have a fitted effect of over 30% in size
- EXPERIMENTAL PARAMETERS: CHO-K1 viability, CellTiter-Glo luminescence, 3 h; series mostly up to 154 µM
Results filed as inconclusive are left out. Calls of active or inactive are those of the source. Calls follow the shape of the full dose curve.
// allowed return values: Y = active, N = inactive

Asked: Returns: the outcome recorded for CC(C)=CC1C(C(=O)OC(C#N)c2cccc(Oc3ccccc3)c2)C1(C)C (stereo not given) in this assay.
Given back: N

Asked: Returns: the outcome recorded for "[Cl][Hg][c]1ccccc1" in this assay.
Given back: Y

Asked: Returns: the outcome recorded for "COP(=O)(OC)Oc1ccc([N+](=O)[O-])cc1" in this assay.
Given back: N

Asked: Returns: the outcome recorded for "O=[N+]([O-])c1cccc2cccc([N+](=O)[O-])c12" in this assay.
Given back: N

Asked: Returns: the outcome recorded for "CSC(=O)c1c(C(F)F)nc(C(F)(F)F)c(C(=O)SC)c1CC(C)C" in this assay.
Given back: N

Asked: Returns: the outcome recorded for CCO/N=C(\CC)C1=C(O)CC(c2c(C)cc(C)cc2C)CC1=O (stereo not given) in this assay.
Given back: N

Asked: Returns: the outcome recorded for "O=S(=O)(NS(=O)(=O)C(F)(F)F)C(F)(F)F" in this assay.
Given back: Y

Asked: Returns: the outcome recorded for "CCC[CH2][Sn]([CH2]CCC)([CH2]CCC)[CH2]CCC" in this assay.
Given back: Y

Asked: Returns: the outcome recorded for "C=Cc1cccc(CCl)c1" in this assay.
Given back: N

Asked: Returns: the outcome recorded for "CC(=O)[O-].CC(=O)[O-].CC(=O)[O-].[Cr+3]" in this assay.
Given back: N

Asked: Returns: the outcome recorded for CNC(=O)O/N=C(\C)C(C)S(C)(=O)=O (stereo not given) in this assay.
Given back: N

Asked: Returns: the outcome recorded for "CCN1CCC2(CC1)COc1cc3c(cc12)N(C(=O)c1ccc(-c2ccc(-c4nnc(C)o4)cc2C)cc1)CC3" in this assay.
Given back: Y

Asked: Returns: the outcome recorded for CC(C)C(Br)C(=O)NC(N)=O (stereo not given) in this assay.
Given back: N

Asked: Returns: the outcome recorded for "COc1ccc2c3c1O[C@H]1[C@H](O)CC[C@H]4[C@@H](C2)N(C)CC[C@@]341" in this assay.
Given back: N

###

- EXPERIMENT NOTES: Caspase-3/7 induction in HepG2 cells by small molecules, qHTS cell viability counter screen (AID 1346981); also: nearly all actives have a fitted effect of over 30% in size
- EXPERIMENTAL PARAMETERS: CellTiter-Fluor fluorescence, 17 h; series mostly up to 92.4 µM
Results filed as inconclusive are left out. Active and inactive are the calls of the source. The call rests on the fitted dose curve; in most records, active means well fitted cell-killing curve with a large enough effect in the repeat runs; inconclusive means weak or mixed curves, or effect the other way; inactive means flat fitted curve, though single readings scatter.
// allowed return values: True for active, False for inactive

Past entries and their recorded results:
{"COMPOUND": "O=[N+]([O-])c1ccccc1-c1ccccc1", "CLASS NAME": "False"}
{"COMPOUND": "CCC1(CC)C(=O)N=C(O)NC1=O", "CLASS NAME": "False"}
{"COMPOUND": "Cc1nn(-c2cc(NS(C)(=O)=O)c(Cl)cc2Cl)c(=O)n1C(F)F", "CLASS NAME": "False"}
{"COMPOUND": "CC(C)[C@@H](Nc1ccc(C(F)(F)F)cc1Cl)C(=O)OC(C#N)c1cccc(Oc2ccccc2)c1 (some centres not stated)", "CLASS NAME": "False"}
{"COMPOUND": "Oc1ccc(Cl)c(Cl)c1", "CLASS NAME": "False"}
{"COMPOUND": "C=CC(=C)C", "CLASS NAME": "False"}
{"COMPOUND": "CCCCC/C=C\\C/C=C\\C/C=C\\C/C=C\\CCCC(=O)NCC(=O)O", "CLASS NAME": "False"}
{"COMPOUND": "CCOP(=S)(OCC)SC(CCl)N1C(=O)c2ccccc2C1=O (configuration not stated)", "CLASS NAME": "False"}
{"COMPOUND": "O=C1C2(Cl)C3(Cl)C4(Cl)C(Cl)(Cl)C5(Cl)C3(Cl)C1(Cl)C5(Cl)C24Cl (configuration not stated)", "CLASS NAME": "True"}
{"COMPOUND": "CC(Cc1ccc(O)cc1)NCC(O)c1cc(O)cc(O)c1 (configuration not stated)", "CLASS NAME": "False"}

Asked: Returns: the outcome recorded for "N#Cc1ccc(N(CC(N)=O)CC(F)(F)F)cc1C(F)(F)F" in this assay.
Given back: False

Asked: Returns: the outcome recorded for "CCCCCON=O" in this assay.
Given back: False

###

- EXPERIMENT NOTES: qHTS assay to identify small molecule antagonists of the TGF-beta/Smad signaling pathway - cell viability counter screen (AID 1346824); also: nearly all actives have a fitted effect of over 50% in size
- EXPERIMENTAL PARAMETERS: SBE-bla HEK293T viability, CellTiter-Glo luminescence; series mostly up to 76.8 µM
Inconclusive results are not listed. Calls of active or inactive are those of the source. The call rests on the fitted dose curve; in most records, active means well fitted cell-killing curve with a large enough effect in the repeat runs; inconclusive means weak or mixed curves; inactive means flat fitted curve, though single readings scatter.
// allowed return values: active, inactive

Past entries and their recorded results:
{"COMPOUND": "ClC1(Cl)C2(Cl)C3(Cl)C4(Cl)C(Cl)(Cl)C5(Cl)C3(Cl)C1(Cl)C5(Cl)C24Cl (stereo unspecified)", "CLASS NAME": "inactive"}
{"COMPOUND": "OCC(Br)CBr (stereo unspecified)", "CLASS NAME": "inactive"}
{"COMPOUND": "O=[N+]([O-])c1ccc(CCl)cc1", "CLASS NAME": "inactive"}

Asked: Returns: the outcome recorded for O=C1C2(Cl)C3(Cl)C4(Cl)C(Cl)(Cl)C5(Cl)C3(Cl)C1(Cl)C5(Cl)C24Cl (stereo unspecified) in this assay.
Given back: inactive

Asked: Returns: the outcome recorded for "BrCCCBr" in this assay.
Given back: inactive

Asked: Returns: the outcome recorded for "CCC[CH2][Sn]([CH2]CCC)([CH2]CCC)[CH2]CCC" in this assay.
Given back: active

Asked: Returns: the outcome recorded for "O=S(=O)(O)F" in this assay.
Given back: inactive

Asked: Returns: the outcome recorded for "COP(=S)(OC)Oc1ccc([N+](=O)[O-])c(C)c1" in this assay.
Given back: inactive

Asked: Returns: the outcome recorded for "CCN(CC)Cc1nccn1-c1ccc([N+](=O)[O-])cc1C(=O)c1ccccc1Cl" in this assay.
Given back: inactive

###

- EXPERIMENT NOTES: A CellTox Green Cytotoxicity Assay to monitor cytotoxicity in HEK293 cells - 24 hour (AID 1224875); also: nearly all actives have a fitted effect of over 45% in size
- EXPERIMENTAL PARAMETERS: CellTox Green fluorescence; series mostly up to 76.8 µM
- Excerpt: National Center for Advancing Translational Sciences [NCATS] NIH Chemical Genomics Center [NCGC] U.S. Environmental Protection Agency [EPA] National Institutes of Environmental Health Sciences [NIEHS] National Toxicology Program [NTP] Cell-based models are critical for drug discovery. […] Viable cells produce no appreciable increases in fluorescence. Therefore, the fluorescence signal produced by the binding interaction with dead cell DNA is proportional to cytotoxicity. […]
Records with an inconclusive call do not appear. Calls of active or inactive are those of the source. The call rests on the fitted dose curve; in most records, active means well fitted activation curve with a large enough effect in the repeat runs; inconclusive means weak or mixed curves; inactive means flat fitted curve, though single readings scatter.
// allowed return values: 1 (yes) = active, 0 (no) = inactive

Past entries and their recorded results:
{"COMPOUND": "COP(=S)(OC)Oc1ccc([N+](=O)[O-])c(C)c1", "CLASS NAME": "0 (no)"}
{"COMPOUND": "CCNS(=O)(=O)C(F)(F)C(F)(F)C(F)(F)C(F)(F)C(F)(F)C(F)(F)C(F)(F)C(F)(F)F", "CLASS NAME": "0 (no)"}
{"COMPOUND": "CC(Cc1ccc(O)cc1)NCC(O)c1cc(O)cc(O)c1 (centres undefined)", "CLASS NAME": "0 (no)"}
{"COMPOUND": "O=C(O)[C@H](O)[C@@H](O)C(=O)O", "CLASS NAME": "0 (no)"}
{"COMPOUND": "O=C(CCCCl)c1ccc(F)cc1", "CLASS NAME": "0 (no)"}
{"COMPOUND": "O=P(Cl)(Cl)Cl", "CLASS NAME": "0 (no)"}
{"COMPOUND": "CCCCC/C=C\\C/C=C\\C/C=C\\C/C=C\\CCCC(=O)NCC(=O)O", "CLASS NAME": "0 (no)"}
{"COMPOUND": "CC(Cc1ccc(OCC(=O)O)cc1)NCC(O)c1csc(C(F)(F)F)n1 (centres undefined)", "CLASS NAME": "0 (no)"}
{"COMPOUND": "CCNc1nc(NC(C)C(C)C)nc(SC)n1 (centres undefined)", "CLASS NAME": "0 (no)"}
{"COMPOUND": "[Cl-].[Cl-].[Sn+2]", "CLASS NAME": "0 (no)"}

Asked: Returns: the outcome recorded for "O.O.O.O=C([O-])[C@H]([O-])[C@@H]([O-])C(=O)[O-].O=C([O-])[C@H]([O-])[C@@H]([O-])C(=O)[O-].[K+].[K+].[Sb+3].[Sb+3]" in this assay.
Given back: 0 (no)

Asked: Returns: the outcome recorded for "CNC(=O)Oc1cc(C)cc(C(C)C)c1" in this assay.
Given back: 0 (no)

Asked: Returns: the outcome recorded for "COC(=O)c1cc(Oc2ccc(Cl)cc2Cl)ccc1[N+](=O)[O-]" in this assay.
Given back: 0 (no)

Asked: Returns: the outcome recorded for "CCOP(=S)(OCC)Oc1cc(C)nc(N(CC)CC)n1" in this assay.
Given back: 0 (no)

Asked: Returns: the outcome recorded for "Cc1cc(C2CC2)nc(Nc2ccccc2)n1" in this assay.
Given back: 0 (no)

Asked: Returns: the outcome recorded for CC(C)C(Br)C(=O)NC(N)=O (centres undefined) in this assay.
Given back: 0 (no)

Asked: Returns: the outcome recorded for CN1[C@@H]2CC[C@H]1CC(O)C2 (some centres undefined) in this assay.
Given back: 0 (no)

Asked: Returns: the outcome recorded for "c1ccc2nc(N3CCNCC3)ccc2c1" in this assay.
Given back: 0 (no)

Asked: Returns: the outcome recorded for "CC(C)(C)c1ccc(OP(=O)(Oc2ccccc2)Oc2ccccc2)cc1" in this assay.
Given back: 0 (no)

Asked: Returns: the outcome recorded for CC(Cl)CCl (centres undefined) in this assay.
Given back: 0 (no)

Asked: Returns: the outcome recorded for "N#Cc1ccc(N(CC(N)=O)CC(F)(F)F)cc1C(F)(F)F" in this assay.
Given back: 0 (no)

Asked: Returns: the outcome recorded for "CC(=O)[O-].CC(=O)[O-].CC(=O)[O-].[Cr+3]" in this assay.
Given back: 0 (no)

Asked: Returns: the outcome recorded for COP(=S)(NC(C)C)Oc1ccc(C)cc1[N+](=O)[O-] (centres undefined) in this assay.
Given back: 0 (no)

Asked: Returns: the outcome recorded for CCn1cc[n+](C)c1 (tested in a mixture with another compound) in this assay.
Given back: 0 (no)

Asked: Returns: the outcome recorded for "COC(=O)c1ccccc1S(=O)(=O)NC(=O)Nc1nc(C)nc(OC)n1" in this assay.
Given back: 0 (no)

Asked: Returns: the outcome recorded for "O=C(Cl)c1ccccc1F" in this assay.
Given back: 0 (no)

Asked: Returns: the outcome recorded for "CC(C)Br" in this assay.
Given back: 0 (no)

Asked: Returns: the outcome recorded for CCCC[N+]1(C)CCCC1 (tested in a mixture with another compound) in this assay.
Given back: 0 (no)
